target: Acetylcholinesterase (Electrophorus electricus, UniProt O42275)
Sequence (O42275 whole entry): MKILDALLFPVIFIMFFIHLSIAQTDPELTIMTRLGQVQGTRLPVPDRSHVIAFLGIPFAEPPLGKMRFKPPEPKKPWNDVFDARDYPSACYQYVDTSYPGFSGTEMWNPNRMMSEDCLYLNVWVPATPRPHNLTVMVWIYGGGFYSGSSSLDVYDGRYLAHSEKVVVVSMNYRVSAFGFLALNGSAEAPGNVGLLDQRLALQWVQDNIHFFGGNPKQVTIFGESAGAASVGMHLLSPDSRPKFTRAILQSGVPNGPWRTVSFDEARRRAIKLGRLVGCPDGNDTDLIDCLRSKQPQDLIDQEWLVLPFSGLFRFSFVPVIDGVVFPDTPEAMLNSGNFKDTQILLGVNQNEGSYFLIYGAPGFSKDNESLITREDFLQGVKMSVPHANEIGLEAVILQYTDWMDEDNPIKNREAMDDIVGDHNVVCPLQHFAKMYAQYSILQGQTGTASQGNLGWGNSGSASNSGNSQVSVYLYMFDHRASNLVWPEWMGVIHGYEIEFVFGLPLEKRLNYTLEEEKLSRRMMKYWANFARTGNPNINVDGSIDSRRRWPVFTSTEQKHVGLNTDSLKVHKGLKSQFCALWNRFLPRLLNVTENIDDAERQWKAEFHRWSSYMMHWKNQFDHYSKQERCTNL
readout type: IC50

A selection of reference data follows.
COc1ccc2c(c1)O/C(=C\c1ccc(O)cc1)C2=O    > 100 µM
CCN(CC)C(=O)Oc1ccc2c(c1)O/C(=C\c1ccc(N(CC)CC)cc1)C2=O    > 100 µM

Please turn your attention to the following entry.
Request the reported IC50 associated with CN(C)c1ccc(/C=C2\Oc3cc(O)ccc3C2=O)cc1
> 100 µM

* * *

target: UniProt P81908; assay: Inhibition of equine serum butyrylcholine esterase incubated for 15 mins using S-butyrylthiocholine chloride substrate by colorimetric Ellman's method
Sequence (P81908 whole entry): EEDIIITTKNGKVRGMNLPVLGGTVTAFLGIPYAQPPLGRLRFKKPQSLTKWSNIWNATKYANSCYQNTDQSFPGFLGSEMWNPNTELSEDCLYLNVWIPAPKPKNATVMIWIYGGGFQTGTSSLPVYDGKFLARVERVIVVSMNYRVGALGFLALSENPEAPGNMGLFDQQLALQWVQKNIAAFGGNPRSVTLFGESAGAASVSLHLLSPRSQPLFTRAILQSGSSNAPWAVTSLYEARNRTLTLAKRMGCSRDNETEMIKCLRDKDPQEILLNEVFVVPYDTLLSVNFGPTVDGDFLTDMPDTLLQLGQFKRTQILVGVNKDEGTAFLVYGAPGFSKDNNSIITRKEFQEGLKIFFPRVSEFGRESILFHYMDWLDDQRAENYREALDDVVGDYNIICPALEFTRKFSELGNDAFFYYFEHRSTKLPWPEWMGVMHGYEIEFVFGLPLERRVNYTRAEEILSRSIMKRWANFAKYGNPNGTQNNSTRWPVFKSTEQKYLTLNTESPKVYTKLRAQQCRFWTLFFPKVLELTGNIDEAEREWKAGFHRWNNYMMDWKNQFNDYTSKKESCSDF
readout type: IC50

CCN(CC)c1ccc(/C=C2\Oc3cc(O)ccc3C2=O)cc1    > 100 µM
COc1cc(/C=C2\Oc3cc(OCCCN(C)C)ccc3C2=O)cc(OC)c1OC    > 100 µM

I have 7 molecules here; please give me IC50 for each one.
1. COc1ccc2c(c1)O/C(=C\c1ccc(O)cc1)C2=O
2. CN(C)c1ccc(/C=C2\Oc3cc(O)ccc3C2=O)cc1
3. O=C1/C(=C/c2ccc(OCCN3CCCC3)cc2)Oc2cc(O)ccc21
4. CCN(CC)C(=O)Oc1ccc2c(c1)O/C(=C\c1ccc(OCCN3CCCC3)cc1)C2=O
5. CCN(CC)C(=O)Oc1ccc2c(c1)O/C(=C\c1ccc(N(CC)CC)cc1)C2=O
6. O=C1/C(=C/c2ccncc2)Oc2cc(O)ccc21
7. COc1cc(/C=C2\Oc3cc(OCCN4CCCC4)ccc3C2=O)cc(OC)c1OC

1: > 100 µM; 2: > 100 µM; 3: > 100 µM; 4: 7.4 µM; 5: > 100 µM; 6: > 100 µM; 7: 11.7 µM

I have 2 molecules here; please give me IC50 for each one.
1. CN(C)CCCOc1ccc(/C=C2\Oc3cc(O)ccc3C2=O)cc1
2. COc1ccc(/C=C2\Oc3cc(OCCCN(C)C)ccc3C2=O)cc1

["> 100 µM", "31.2 µM"]

I have 3 molecules here; please give me IC50 for each one.
1. COc1ccc2c(c1)O/C(=C\c1ccc(OCCN3CCCC3)cc1)C2=O
2. COc1ccc2c(c1)O/C(=C\c1ccc(OCCN(C)C)c(Cl)c1)C2=O
3. CCN(CC)C(=O)Oc1ccc2c(c1)O/C(=C\c1ccc(OC)cc1)C2=O

1: 10.2 µM; 2: 11.1 µM; 3: 12.7 µM

I have 5 molecules here; please give me IC50 for each one.
1. CCN(CC)C(=O)Oc1ccc(/C=C2\Oc3cc(OC)ccc3C2=O)cc1
2. COc1cc(/C=C2\Oc3cc(OCCN4CCCCC4)ccc3C2=O)cc(OC)c1OC
3. COc1ccc(/C=C2\Oc3cc(O)ccc3C2=O)cc1
4. O=C1/C(=C/c2ccc(OCCN3CCCC3)cc2Cl)Oc2cc(O)ccc21
5. COc1ccc(/C=C2\Oc3cc(OC)ccc3C2=O)cc1

1: > 100 µM; 2: 6.15 µM; 3: > 100 µM; 4: 8.68 µM; 5: > 100 µM

Request the reported IC50 associated with CCN(CC)C(=O)Oc1ccc2c(c1)O/C(=C\c1ccc(N(C)C)cc1)C2=O
> 100 µM
